system: OVCAR4; assay: drug sensitivity score (DSS) from 5-point dose-response viability curve (DSS (area-under-curve based score)); higher = more sensitive (stronger growth inhibition or killing); extreme values may be limits of the assay; details: exposure time: 72 h; concentration range: 5 concentrations over 10,000-fold range
I'd be grateful if you could share measured drug sensitivity score for these entries.
Field format: numeric only.

Incoming: Short answer please: drug sensitivity score, OVCAR4, entry Cc1cc(Nc2cc(N3CCN(C)CC3)nc(Sc3ccc(NC(=O)C4CC4)cc3)n2)n[nH]1 [Tozasertib]
Outgoing: 5.8

Incoming: Short answer please: drug sensitivity score, OVCAR4, entry O=c1sn(-c2cccc3ccccc23)c(=O)n1Cc1ccccc1 [Tideglusib]
Outgoing: 0

Incoming: Short answer please: drug sensitivity score, OVCAR4, entry O=C(O)CC[C@H]1CC[C@@](c2cc(F)ccc2F)(S(=O)(=O)c2ccc(Cl)cc2)CC1 [MK-0752]
Outgoing: 0

Incoming: Short answer please: drug sensitivity score, OVCAR4, entry CC(C)Cn1cnc2c(N)nc3ccccc3c21 [Imiquimod]
Outgoing: 0

Incoming: Short answer please: drug sensitivity score, OVCAR4, entry O=C(NOC[C@H](O)CO)c1ccc(F)c(F)c1Nc1ccc(I)cc1F
Outgoing: 2.1

###

I'd be grateful if you could share measured drug sensitivity score for these entries.
system: HOSE2C; experiment: drug sensitivity score (DSS) from 5-point dose-response viability curve (DSS (area-under-curve based score)); higher = more sensitive (stronger growth inhibition or killing); extreme values may be limits of the assay; details: exposure time: 72 h; concentration range: 5 concentrations over 10,000-fold range
Field format: numeric only.

Incoming: drug sensitivity score for CCN1CCN(Cc2ccc(Nc3ncc(F)c(-c4cc(F)c5nc(C)n(C(C)C)c5c4)n3)nc2)CC1 ?
Outgoing: 0.7

Incoming: drug sensitivity score for CCCCCCCCc1ccc(CCC(N)(CO)CO)cc1 ?
Outgoing: 5.4

Incoming: drug sensitivity score for O=C(Nc1ccc2[nH]nc(-c3ccncc3)c2c1)[C@@H]1CCN(CC(=O)N2CCN(c3ccc(-c4ncccn4)cc3)CC2)C1 ?
Outgoing: 1.1

Incoming: drug sensitivity score for FC(F)c1nc2ccccc2n1-c1nc(N2CCOCC2)nc(N2CCOCC2)n1 ?
Outgoing: 10.6

Incoming: drug sensitivity score for Cc1c(N)nc([C@H](CC(N)=O)NC[C@H](N)C(N)=O)nc1C(=O)N[C@H](C(=O)N[C@H](C)[C@@H](O)[C@H](C)C(=O)N[C@H](C(=O)NCCc1nc(-c2nc(C(=O)NCCC[S+](C)C)cs2)cs1)[C@@H](C)O)[C@@H](OC1OC(CO)C(O)C(O)C1OC1OC(CO)C(O)C(OC(N)=O)C1O)c1cnc[nH]1 (stereo partly specified) ?
Outgoing: 4.5

Incoming: drug sensitivity score for CC(=O)[C@]1(O)Cc2c(O)c3c(c(O)c2[C@@H](O[C@H]2C[C@H](N)[C@H](O)[C@H](C)O2)C1)C(=O)c1ccccc1C3=O ?
Outgoing: 13.7

###

tested on: COV362; assay: drug sensitivity score (DSS) from 5-point dose-response viability curve (DSS (area-under-curve based score)); higher = more sensitive (stronger growth inhibition or killing); extreme values may be limits of the assay; conditions: exposure time: 72 h; concentration range: 5 concentrations over 10,000-fold range
valueType: drug sensitivity score

Incoming: drug sensitivity score for NC(=O)c1cccc2cn(-c3ccc([C@@H]4CCCNC4)cc3)nc12 ?
Outgoing: 0

Incoming: drug sensitivity score for CNC(=O)c1ccc2cc([C@@]3(O)CCn4cncc43)ccc2c1 ?
Outgoing: 0

Incoming: drug sensitivity score for CON(C)C(=O)N1N=C(c2cc(F)ccc2F)S[C@@]1(CCCN)c1ccccc1 ?
Outgoing: 1.4

Incoming: drug sensitivity score for CCC1(c2ccc(N)cc2)CCC(=O)NC1=O (stereo not given) [Aminoglutethimide] ?
Outgoing: 0

Incoming: drug sensitivity score for COc1cc(CCc2cc(NC(=O)c3ccc(N4CC(C)NC(C)C4)cc3)n[nH]2)cc(OC)c1 (stereo not given) ?
Outgoing: 0

###

system: Ovsaho; experiment: drug sensitivity score (DSS) from 5-point dose-response viability curve (DSS (area-under-curve based score)); higher = more sensitive (stronger growth inhibition or killing); extreme values may be limits of the assay; settings: exposure time: 72 h; concentration range: 5 concentrations over 10,000-fold range
valueType: drug sensitivity score
Field format: numeric only.

Incoming: drug sensitivity score for CCCC(CCC)C(=O)O ?
Outgoing: 0

Incoming: drug sensitivity score for CC1(C)CCC(c2ccc(Cl)cc2)=C(CN2CCN(c3ccc(C(=O)NS(=O)(=O)c4ccc(N[C@H](CCN5CCOCC5)CSc5ccccc5)c(S(=O)(=O)C(F)(F)F)c4)cc3)CC2)C1 ?
Outgoing: 3

Incoming: drug sensitivity score for Cc1nc(=O)c2cc(CN(C)c3ccc(C(=O)N[C@@H](CCC(=O)O)C(=O)O)s3)ccc2[nH]1 ?
Outgoing: 5.7

Incoming: drug sensitivity score for CN(C)Cc1c(C(=O)NCCOc2ccc(C(=O)NO)cc2)oc2ccccc12 ?
Outgoing: 10

Incoming: drug sensitivity score for CS(=O)(=O)c1ccc(-c2cnc(N)c(C(=O)Nc3ccccc3)n2)cc1 ?
Outgoing: 1.2

Incoming: drug sensitivity score for CC(C)(C)c1cnc(CSc2cnc(NC(=O)C3CCNCC3)s2)o1 ?
Outgoing: 18.9

Incoming: drug sensitivity score for Nc1cc(COc2c(Cl)cc(C[C@H](N)C(=O)O)cc2Cl)c2oc(-c3ccccc3)nc2c1 ?
Outgoing: 0

Incoming: drug sensitivity score for C[C@@H](Nc1cc(F)cc(F)c1)c1cc(C(=O)N(C)C)cc2c(=O)cc(N3CCOCC3)oc12 ?
Outgoing: 6.3

###

I'd be grateful if you could share measured drug sensitivity score for these entries.
tested on: COV362; test: drug sensitivity score (DSS) from 5-point dose-response viability curve (DSS (area-under-curve based score)); higher = more sensitive (stronger growth inhibition or killing); extreme values may be limits of the assay; conditions: exposure time: 72 h; concentration range: 5 concentrations over 10,000-fold range
Field format: numeric only.

Incoming: Short answer please: drug sensitivity score, COV362, entry CC[C@H](NC(=O)[C@H](C)NC)C(=O)N1C[C@@H](O)C[C@H]1Cc1c(-c2[nH]c3cc(F)ccc3c2C[C@@H]2C[C@H](O)CN2C(=O)[C@H](CC)NC(=O)[C@H](C)NC)[nH]c2cc(F)ccc12
Outgoing: 0

Incoming: Short answer please: drug sensitivity score, COV362, entry O=C(Nc1cccnc1)N1CCC(Cc2cccc(Oc3ccc(C(F)(F)F)cn3)c2)CC1
Outgoing: 0

Incoming: Short answer please: drug sensitivity score, COV362, entry COc1cc2c(NC3CCN(C(C)C)CC3)nc(N3CCC(F)(F)CC3)nc2cc1OCCCN1CCCC1
Outgoing: 0.9

Incoming: Short answer please: drug sensitivity score, COV362, entry COc1cc(C(=O)O)ccc1NC(=O)[C@@H]1N[C@@H](CC(C)(C)C)[C@](C#N)(c2ccc(Cl)cc2F)[C@H]1c1cccc(Cl)c1F
Outgoing: 0

Incoming: Short answer please: drug sensitivity score, COV362, entry CC1(C)CNc2cc(NC(=O)c3cccnc3NCc3ccncc3)ccc21
Outgoing: 0

Incoming: Short answer please: drug sensitivity score, COV362, entry Nc1nc2cc(-c3ccc4ncc(C(=O)N5CCOCC5)n4c3)ccc2o1
Outgoing: 0

Incoming: Short answer please: drug sensitivity score, COV362, entry CN(CC(=O)N(Cc1ccc(C2CCCCC2)cc1)c1ccc(C(=O)O)cc1)S(=O)(=O)c1c(F)c(F)c(F)c(F)c1F
Outgoing: 4.5

###

I'd be grateful if you could share measured drug sensitivity score for these entries.
system: OVCAR8; assay: drug sensitivity score (DSS) from 5-point dose-response viability curve (DSS (area-under-curve based score)); higher = more sensitive (stronger growth inhibition or killing); extreme values may be limits of the assay; conditions: exposure time: 72 h; concentration range: 5 concentrations over 10,000-fold range
Field format: numeric only.

Incoming: drug sensitivity score for Oc1ncnc2[nH]ncc12 ?
Outgoing: 0

Incoming: drug sensitivity score for CC(C)n1cnc2c(NCCc3ccc(O)cc3)nc(-c3csc4ccccc34)nc21 ?
Outgoing: 1.6

Incoming: drug sensitivity score for N#Cc1ccc(C(c2ccc(C#N)cc2)n2cncn2)cc1 ?
Outgoing: 0

Incoming: drug sensitivity score for Cc1nc(Nc2ncc(C(=O)Nc3c(C)cccc3Cl)s2)cc(N2CCN(CCO)CC2)n1 ?
Outgoing: 9.1

Incoming: drug sensitivity score for Cc1ncc(Cl)cc1NCc1ccc(C(=O)N[C@@H](CC2CCCC2)C(=O)NC2CC2)s1 ?
Outgoing: 0

Incoming: drug sensitivity score for C=CC(=O)N1CC/C(=C\c2ccc(F)c([N+](=O)[O-])c2)C(=O)/C(=C/c2ccc(F)c([N+](=O)[O-])c2)C1 ?
Outgoing: 26.8

Incoming: drug sensitivity score for CCCCCCCCc1ccc(CCC(N)(CO)CO)cc1 ?
Outgoing: 6.8

Incoming: drug sensitivity score for COc1cc(N2CCC(N3CCN(C)CC3)CC2)ccc1Nc1ncnc(Nc2ccccc2S(=O)(=O)C(C)C)n1 ?
Outgoing: 4.3

Incoming: drug sensitivity score for CC1(C)C(C(=O)Nc2ccc(S(=O)(=O)c3ccc(NC(=O)C4C(C)(C)C4(C)C)cc3)cc2)C1(C)C ?
Outgoing: 0
